Ki for assorted compounds
- assay.target: JAK3 (Homo sapiens)
- Sequence (P52333 1-1124): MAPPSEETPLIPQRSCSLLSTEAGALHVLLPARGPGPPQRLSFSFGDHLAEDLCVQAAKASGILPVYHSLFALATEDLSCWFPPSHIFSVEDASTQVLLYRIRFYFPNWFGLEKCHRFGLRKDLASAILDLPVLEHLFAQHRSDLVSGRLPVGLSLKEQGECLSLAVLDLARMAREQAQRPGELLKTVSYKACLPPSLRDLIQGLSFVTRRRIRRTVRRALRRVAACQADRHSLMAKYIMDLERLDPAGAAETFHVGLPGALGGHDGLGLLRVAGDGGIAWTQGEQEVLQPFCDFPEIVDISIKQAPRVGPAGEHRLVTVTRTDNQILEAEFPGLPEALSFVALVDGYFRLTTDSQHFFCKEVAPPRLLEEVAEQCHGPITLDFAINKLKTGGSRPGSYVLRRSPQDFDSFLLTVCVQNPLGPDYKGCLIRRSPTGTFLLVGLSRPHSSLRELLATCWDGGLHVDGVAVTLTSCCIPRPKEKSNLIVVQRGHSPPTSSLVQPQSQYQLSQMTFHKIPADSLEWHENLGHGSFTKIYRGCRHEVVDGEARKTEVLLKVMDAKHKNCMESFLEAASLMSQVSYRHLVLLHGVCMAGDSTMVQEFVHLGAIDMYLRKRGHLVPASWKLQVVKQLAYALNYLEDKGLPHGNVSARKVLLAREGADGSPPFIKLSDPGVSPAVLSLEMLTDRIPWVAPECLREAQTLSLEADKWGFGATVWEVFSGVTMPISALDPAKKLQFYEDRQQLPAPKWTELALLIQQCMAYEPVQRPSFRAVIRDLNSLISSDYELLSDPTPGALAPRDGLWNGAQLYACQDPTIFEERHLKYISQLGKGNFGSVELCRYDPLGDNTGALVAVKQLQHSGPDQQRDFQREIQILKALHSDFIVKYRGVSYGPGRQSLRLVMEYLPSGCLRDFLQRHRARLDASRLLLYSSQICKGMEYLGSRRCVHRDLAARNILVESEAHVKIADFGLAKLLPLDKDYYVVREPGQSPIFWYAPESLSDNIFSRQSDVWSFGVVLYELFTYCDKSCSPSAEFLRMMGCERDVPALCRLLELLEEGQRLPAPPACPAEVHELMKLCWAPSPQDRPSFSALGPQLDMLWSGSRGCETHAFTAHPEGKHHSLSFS
experimental.endpoint: Ki

INSERT INTO results (compound, reading) VALUES
  ('CN(C)c1ccc(-c2cnc3[nH]cc(-c4nncn4-c4cccc(F)c4F)c3c2)cc1', '200 to 1000 nM'),
  ('CN1CCN(c2ccc(-c3cnc4[nH]cc(-c5oncc5-c5cccc(F)c5F)c4c3)cc2)CC1 [Compound 70, methanesulfonate]', '< 200 nM'),
  ('CN1CCN(C(=O)[C@H]2C[C@@H]2c2cnc3[nH]cc(-c4oncc4-c4cccc(F)c4F)c3c2)CC1 (relative stereo)', '200 to 1000 nM'),
  ('Fc1cccc(-c2cnoc2-c2c[nH]c3ncc(-c4ccccn4)cc23)c1F', '< 200 nM'),
  ('Cc1noc(-c2c[nH]c3ncc(-c4ccc(N5CCN(C)CC5)cc4)cc23)c1-c1cccc(F)c1F', '< 200 nM'),
  ('CN(C)Cc1ccc(-c2cnc3[nH]cc(-c4oncc4-c4cccc(F)c4F)c3c2)nc1', '< 200 nM'),
  ('c1ccc(-c2cnoc2-c2c[nH]c3ncccc23)nc1', '1000 to 12500 nM'),
  ('CN1CCN(c2ccc(-c3cnc4[nH]cc(-c5nncn5-c5cccc(F)c5F)c4c3)cc2N)CC1', '200 to 1000 nM'),
  ('Fc1cccc(-c2cnoc2-c2c[nH]c3ncc(-c4ccc(CN5CCCC5)cc4)cc23)c1F', '< 200 nM'),
  ('Fc1cccc(-c2cnoc2-c2c[nH]c3ncc(Cl)cc23)c1F', '200 to 1000 nM'),
  ('Fc1c(Cl)cccc1-c1cnoc1-c1c[nH]c2ncccc12', '200 to 1000 nM'),
  ('Nc1cccc(-c2cnc3[nH]cc(-c4oncc4-c4cccc(F)c4F)c3c2)c1', '< 200 nM'),
  ('CN1CCN(c2ccc(-c3cnc4[nH]cc(-c5nncn5-c5cccc(F)c5F)c4c3)cc2)CC1', '200 to 1000 nM'),
  ('COc1cncc(-c2cnc3[nH]cc(-c4oncc4-c4cccc(F)c4F)c3c2)c1', '< 200 nM'),
  ('Nc1ccnc(-c2cnc3[nH]cc(-c4oncc4-c4cccc(F)c4F)c3c2)c1', '< 200 nM'),
  ('Fc1cccc(-c2cnoc2-c2c[nH]c3ncc(-c4ccccc4)cc23)c1F', '< 200 nM'),
  ('CN1CCN(C(=O)[C@H]2C[C@H]2c2cnc3[nH]cc(-c4oncc4-c4cccc(F)c4F)c3c2)CC1 (relative stereo)', '1000 to 12500 nM'),
  ('Fc1cccc(-c2cnoc2-c2c[nH]c3ncc(-c4ccncc4)cc23)c1F', '< 200 nM');
